# Tested on: MCF7
# Test description: Antiproliferative activity against human MCF7 cells by MTT assay
# Format: functional, cell-based
# Setup conditions: read-out: pIC50 (converted)
Field: label. Allowed values: 1.0 (IC50 < 10 µM) or 0.0 (IC50 >= 10 µM).

Example cases with answers are listed next.
{"Record smiles": "O=c1c2oc3nc(-c4cccs4)cc(C(F)(F)F)c3c2ncn1C1CCCC1", "Class label": 0.0}
{"Record smiles": "CCNC(=O)c1oc2nc(-c3cccs3)cc(C(F)(F)F)c2c1N", "Class label": 0.0}
{"Record smiles": "Nc1c(C(=O)N/N=C/c2ccc(Br)cc2)oc2nc(-c3cccs3)cc(C(F)(F)F)c12", "Class label": 1.0}
{"Record smiles": "Nc1c(C(=O)N/N=C/c2ccccc2)oc2nc(-c3ccccc3)cc(C(F)(F)F)c12", "Class label": 0.0}
{"Record smiles": "CCCn1c(C)nc2c(oc3nc(-c4cccs4)cc(C(F)(F)F)c32)c1=O", "Class label": 0.0}

API: query returns whether the compound falls strictly under 10 µM in IC50. Query: Cc1nc2c(oc3nc(-c4cccs4)cc(C(F)(F)F)c32)c(=O)n1C1CCCC1
0.0

Given CNC(=O)c1oc2nc(-c3ccccc3)cc(C(F)(F)F)c2c1N , is recorded IC50 strictly lower than 10 µM?
0.0

Bench note: check whether O=c1c2oc3nc(-c4ccccc4)cc(C(F)(F)F)c3c2ncn1/N=C/c1ccc(Cl)cc1 shows IC50 below 10 µM
0.0

hey, is IC50 for Cc1ccc(/C=N/n2cnc3c(oc4nc(-c5cccs5)cc(C(F)(F)F)c43)c2=O)cc1 lower than 10 µM or not?
0.0

Does CCCn1c(C)nc2c(oc3nc(-c4ccccc4)cc(C(F)(F)F)c32)c1=O have IC50 strictly under 10 µM?
0.0

For Nc1c(C(=O)N/N=C/c2ccc(Cl)cc2)oc2nc(-c3cccs3)cc(C(F)(F)F)c12 , is the recorded IC50 below the cut-off of 10 µM?
1.0
